Values from patent US20160102129A1

EXPERIMENTAL SYSTEM: human glucagon receptor (human, UniProt P47871 26-477)
Sequence (P47871 26-477): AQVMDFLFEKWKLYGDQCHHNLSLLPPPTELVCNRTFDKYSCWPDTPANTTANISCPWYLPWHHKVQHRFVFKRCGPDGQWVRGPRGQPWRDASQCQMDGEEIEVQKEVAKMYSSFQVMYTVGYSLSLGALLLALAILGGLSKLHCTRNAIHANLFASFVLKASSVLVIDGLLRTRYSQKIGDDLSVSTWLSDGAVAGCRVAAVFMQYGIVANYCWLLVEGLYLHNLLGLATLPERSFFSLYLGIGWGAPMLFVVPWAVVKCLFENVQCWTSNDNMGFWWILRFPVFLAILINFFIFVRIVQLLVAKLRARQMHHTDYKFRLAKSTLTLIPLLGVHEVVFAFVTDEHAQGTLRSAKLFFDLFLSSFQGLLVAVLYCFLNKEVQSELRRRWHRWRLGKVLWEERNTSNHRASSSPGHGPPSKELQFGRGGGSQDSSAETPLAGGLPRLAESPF
PROTOCOL DESCRIPTION: cell-based or functional assay
*1 amine or outer side, *2 acyl side, *3 side chain or, on linkers, in order; H or OH if unused. Side-chain parts run from the residue outwards. [ ]: non-standard residue; d: D form. The star is where a group is joined. C20 diacid = O=C(O)CCCCCCCCCCCCCCCCCCC(=O)*; C18 diacid = O=C(O)CCCCCCCCCCCCCCCCC(=O)*; γGlu = O=C(O)[C@H](CCC(=O)[*:2])N[*:1]; C14 diacid = O=C(O)CCCCCCCCCCCCC(=O)*; Desaminohistidyl = O=C(CCc1c[nH]cn1)*; Aib = CC(C)(N)C(=O)O
Param label: returns label 1 when EC50 GlucagonR [pM], CRE luciferase reporter gene assay < 80 pM, returns label 0 otherwise, including exact equality.

BINDER	ASSIGNED LABEL
[Desaminohistidyl][Aib]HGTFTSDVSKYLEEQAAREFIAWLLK([Ado-Ado-γGlu-γGlu-C20 diacid])T-NH2	label 0
[Desaminohistidyl][Aib]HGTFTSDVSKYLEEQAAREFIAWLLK([Ado-Ado-γGlu-γGlu-C14 diacid])T-NH2	label 1
XXHGTFTSDYSRYLEEQAAREFIAWLLRK (Imp (desamino-His) at 7; Acb at 8; Lys35 N-epsilon acylated with 17-carboxyheptadecanoyl-γGlu-γGlu-Ado-γGlu-Ado-γGlu-Ado-γGlu-; C-terminal amide (GLP-1(7-37) numbering))	label 1
[Desaminohistidyl][Aib]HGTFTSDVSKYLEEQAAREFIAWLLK([Ado-Ado-γGlu-C18 diacid])T-NH2	label 0

Now consider a different binder.
Lab note: EC50 GlucagonR [pM], CRE luciferase reporter gene assay threshold 80 pM. Does this binder come in strictly under it? XXHGTFTSDYSKYLERQAAREFIAWLLKK (Imp (desamino-His) at 7; Acb at 8; Lys35 N-epsilon acylated with 17-carboxyheptadecanoyl-γGlu-γGlu-Ado-γGlu-Ado-γGlu-Ado-γGlu-; C-terminal amide (GLP-1(7-37) numbering)) label 0
